Target: human CXCR4 (cell-expressed) (human, UniProt P61073 1-352)
Sequence (P61073 whole entry): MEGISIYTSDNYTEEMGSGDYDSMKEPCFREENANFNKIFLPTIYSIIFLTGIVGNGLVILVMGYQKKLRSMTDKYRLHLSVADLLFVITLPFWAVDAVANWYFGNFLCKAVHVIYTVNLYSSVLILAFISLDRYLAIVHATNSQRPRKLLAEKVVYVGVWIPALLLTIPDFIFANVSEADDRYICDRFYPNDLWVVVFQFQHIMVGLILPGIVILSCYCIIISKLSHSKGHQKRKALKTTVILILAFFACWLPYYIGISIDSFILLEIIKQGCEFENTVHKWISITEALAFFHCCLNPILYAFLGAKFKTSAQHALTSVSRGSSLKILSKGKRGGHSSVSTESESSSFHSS
Experiment: cell-based or functional assay
EXPERIMENTAL ENDPOINT: IC50, cAMP HTRF assay, CXCR4 BacMam HEK-293 cells, 5.5 nM CXCL12 (nM)
Numeric answer only, unit nM assumed.

Return reported IC50, cAMP HTRF assay, CXCR4 BacMam HEK-293 cells, 5.5 nM CXCL12. Input binder: CL-82523 (antibody, human IgG4 S228P, kappa, V domains shown, Tested in human IgG4-PE format) VH: EVQLVESGGGLVQPGGSLRLSCAASGFTFSNYAMSWVRQAPRKGLEWVSVISGSGGRTNYAGSVKGRFSITRDNSKNTLYLQMNSLRAEDTAVYYCVKGQLERRYYYYYGMDVWGQGITVTVSS VL: DIQMTQSPSSLSASVGDRVTITCRASQGIRNDLGWYQQKPGKAPKRLIYAASSLQSGVPSRFSGSGSGTEFTLTISSLQPEDFATYYCLQHNSYPLTFGGGTKVEIKR
24

Please give the documented IC50, cAMP HTRF assay, CXCR4 BacMam HEK-293 cells, 5.5 nM CXCL12 of CL-148729 (antibody, human IgG4 S228P, lambda, V domains shown, Tested in human IgG4-PE format) VH: AVQLVESGGGLVQPGGSLKLSCAASGFTFSGSTMHWVRQASGRGLEWVGRIRSKADSYATAYSASVKGRFTISRDDSKKMAYLQMNSLKTEDMAVYYCTRSGDYWGQGTLVTVSS VL: QSVLTQPPSVSAAPGQKVTISCSGSSSNIGKNYVAWYQQLPGTAPKLLIYDTNKRPSGIPDRFSGSKSGTSATLDITGLQTGDEADYYCGTWDISLSVGWLFGGGTKVTVLG
6

The measurements presented in this section are drawn from patent US20240294651A1.
